Test system: BV-173
procedure summary: cell viability (% survival relative to DMSO control, bortezomib = 0%); higher = less cytotoxic
protocol conditions: 100 nM; 72 h
reported property: cell viability (%)
Give just the number in %; leave the unit off.

Cl.NC1=CCCN1Cc1nc(O)nc(O)c1Cl    97.9
O=C(Oc1cccc(F)c1OC(=O)c1cccc(O)c1)c1cccc(O)c1    90.5

Report its cell viability with BV-173 as the test system: O=C(CCl)N(CCCNC(=O)C(F)(F)F)c1ccc([N+](=O)[O-])cc1
101

Please report cell viability with BV-173 for item Cc1nnc(-c2ccc(N3CCC(Oc4ccccc4C(F)(F)F)CC3)nn2)s1 .
89.4

Fill in cell viability for O=C(c1c2ccccc2cc2ccccc12)N1CCC(N2CCC[C@@H](C(=O)N3CCOCC3)C2)CC1 tested with BV-173.
118

Give cell viability only, for NCc1ccc(-c2cccnc2)s1 , using BV-173 data.
98.7

Under BV-173, report cell viability for Oc1ncc(F)c(O)n1
85.6

Please tell me the measured cell viability for O=[As]O[As]=O (stereo unspecified) [Arsenic trioxide] ; system: BV-173.
105

###

# key: entry, value: cell viability
System: SHI-1
procedure summary: cell viability (% survival relative to DMSO control, bortezomib = 0%); higher = less cytotoxic
protocol conditions: 100 nM; 72 h

In the examples that follow, each entry is paired with its recorded cell viability.
Cc1[nH]n(-c2ccccc2)c(=O)c1C1(C(F)(F)F)C(=O)N(c2ccccc2)C2=C1C(=O)CC(C)(C)C2 (stereo not drawn)    109%
Cc1nc(-c2ccc(OCC(C)C)c(C#N)c2)sc1C(=O)O    99%

Quote cell viability with test system SHI-1 for C#CCN[C@@H]1CCc2ccccc21
100%

###

System: K-562
protocol conditions: 72 h
Entries whose IC50 (cell viability) is below 0.2 µM take Condition met; entries at or above 0.2 µM take Condition not met.

Some solved entries appear below for comparison.
Oc1ncc(F)c(O)n1    Condition not met
Cn1cc(C[C@@H](N)C(=O)O)c2ccccc21    Condition not met
O=C(Oc1cccc(F)c1OC(=O)c1cccc(O)c1)c1cccc(O)c1    Condition not met

Lab log: compare recorded IC50 (cell viability) with 0.2 µM; is it strictly lower for Nc1ccn([C@@H]2O[C@H](CO)[C@@H](O)C2(F)F)c(=O)n1 ?
Condition met

Check if IC50 (cell viability) falls below 0.2 µM for O=C(Cc1cccc(OC(F)(F)F)c1)Nc1ccc(CCCCc2nnc(NC(=O)Cc3ccccn3)s2)nn1 .
Condition not met

Lab note: confirm whether the reported IC50 (cell viability) for this compound is below 0.2 µM, equality not counting. compound: CN(C)CCNC(=O)c1cccn2c(=O)c3cc4ccccc4cc3nc12
Condition not met

Does the reported IC50 (cell viability) of the following compound sit strictly below 0.2 µM? Cc1nc(-c2ccc(OCC(C)C)c(C#N)c2)sc1C(=O)O
Condition not met

Problem: For the compound Cc1nnc(-c2ccc(N3CCC(Oc4ccccc4C(F)(F)F)CC3)nn2)s1 , is IC50 (cell viability) under 0.2 µM?
Condition met

Bench note: check whether O=C(/C=C/c1cccnc1)NCCCCC1CCN(C(=O)c2ccccc2)CC1 shows IC50 (cell viability) below 0.2 µM
Condition met

Here's an entry: Clc1cc(Cl)c(OCC#CI)cc1Cl . Is its IC50 (cell viability) below 0.2 µM?
Condition not met

Quick check: does COc1ccc2c(c1)c(CC(=O)O)c(C)n2C(=O)c1ccc(Cl)cc1 have IC50 (cell viability) under 0.2 µM?
Condition not met

For this compound, is IC50 (cell viability) lower than 0.2 µM? Cl.OC[C@H]1NC[C@H](O)[C@@H](O)[C@H]1O
Condition not met
